For each of the variants below, state its folding stability dG.
B1: EHEE_rd3_0053 (parent)
chain: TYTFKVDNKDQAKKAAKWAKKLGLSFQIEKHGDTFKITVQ

Variants of: B1
Test Name: folding stability dG (cDNA display proteolysis); higher = more stable
Condition Set: PBS, room temperature

Field request: folding stability dG | item: T3G
0.986 kcal/mol

And A16R ?
2.56 kcal/mol

Query T34S next
2.61 kcal/mol

# iterate: T3W
2.67 kcal/mol

Quick one: K14Y
2.17 kcal/mol

Another variant: L22C
3.29 kcal/mol

Now try A16T .
1.87 kcal/mol

Likewise for A12N ?
-0.078 kcal/mol

What would you report for T1R ?
2.45 kcal/mol

Quick one: L24T
0.294 kcal/mol

Similarly, F4W ?
2.38 kcal/mol

Another variant to look at: K20E
2.02 kcal/mol

Proceed to K21M
2.4 kcal/mol

Next entry: K5T
3.28 kcal/mol

Same thing, different variant: G32F
1.65 kcal/mol

// query: K20S
2.08 kcal/mol

Now the same for G23S
1.42 kcal/mol

L22A , same question.
2.08 kcal/mol

Lookup I28V
2.23 kcal/mol

Then D7N ?
2.62 kcal/mol

Then K13D ?
2.46 kcal/mol

For Q11H then?
2.1 kcal/mol
